experimental_protocol: physchem
measurement_conditions: simulated gastric fluid
test_readout: solubility

Query string: Field request: solubility | item: CCCCCCCCn1c2c(c3ccccc31)CCN1C(=O)c3ccccc3N(C)C21 (centres unmarked) [2-5, N13-Octylevodiamine]
Result string: 30 µg/mL

Query string: Consider the compound shown here: CC(=O)OCCn1c2c(c3ccccc31)CCN1C(=O)c3ccccc3N(C)C21 (centres unmarked) [2-19, N13-(2-Acetoxyethyl)evodiamine] What is its recorded solubility?
Result string: > 120 µg/mL

Query string: Need solubility of CN1c2ccccc2C(=O)N2CCc3c(n(CCCCCn4c5c(c6ccccc64)CCN4C(=O)c6ccccc6N(C)C54)c4ccccc34)C21 (centres unmarked) [3-1, 1,5-Bis-(evodiamin-N13-yl)pentane] , thanks.
Result string: > 120 µg/mL

Query string: Fill in: solubility of CN1c2ccccc2C(=O)N2CCc3c(n(CCCCCCn4c5c(c6ccccc64)CCN4C(=O)c6ccccc6N(C)C54)c4ccccc34)C21 (centres unmarked) [3-2, N1,6-Bis-(evodiamin-N13-yl)hexane] is ___
Result string: > 120 µg/mL

Query string: Consider the compound shown here: CC(=O)OCCCn1c2c(c3ccccc31)CCN1C(=O)c3ccccc3N(C)C21 (centres unmarked) [2-20, N13-(3-Acetoxypropyl)evodiamine] What is its recorded solubility?
Result string: > 120 µg/mL

Query string: # solubility lookup, item CN1c2ccccc2C(=O)N2CCc3c(n(CCCc4ccccc4)c4ccccc34)C21 (centres unmarked) [2-6, N13-(3-Phenylpropyl)evodiamine]
Result string: 60 µg/mL

Query string: // solubility lookup, key: C=CCn1c2c(c3ccccc31)CCN1C(=O)c3ccccc3N(C)C21 (centres unmarked) [2-1, N13-Allylevodiamine]
Result string: 60 µg/mL

Query string: // query solubility value for entry CCCCn1c2c(c3ccccc31)CCN1C(=O)c3ccccc3N(C)C21 (centres unmarked) [2-2, N13-Butylevodiamine]
Result string: > 120 µg/mL

Query string: May I ask what solubility has been recorded for CON=CCn1c2c(c3ccccc31)CCN1C(=O)c3ccccc3N(C)C21 (centres unmarked) [6-2] ?
Result string: 60 µg/mL

Query string: For CC(C)Cn1c2c(c3ccccc31)CCN1C(=O)c3ccccc3N(C)C21 (centres unmarked) [2-7, N13-Isobutylevodiamine] , what is its reported solubility?
Result string: > 110 µg/mL

Query string: Which solubility is listed for CCCCCn1c2c(c3ccccc31)CCN1C(=O)c3ccccc3N(C)C21 (centres unmarked) [2-3, N13-Pentylevodiamine] ?
Result string: 60 to 120 µg/mL

Query string: Looking for the measured solubility of CCOC(=O)CCn1c2c(c3ccccc31)CCN1C(=O)c3ccccc3N(C)C21 (centres unmarked) [2-22, N13-(2-(Ethoxycarbonyl)ethyl)evodiamine] , can you help?
Result string: > 120 µg/mL

Query string: Return reported solubility; argument: CCCCOCCn1c2c(c3ccccc31)CCN1C(=O)c3ccccc3N(C)C21 (centres unmarked) [2-15, N13-(2-Butoxyethyl)evodiamine]
Result string: 30 to 120 µg/mL

Query string: Can you share its solubility? I mean this compound: CN1c2ccccc2C(=O)N2CCc3c(n(CCCCCl)c4ccccc34)C21 (centres unmarked) [2-11, N13-(4-Chlorobutyl)evodiamine]
Result string: 98 µg/mL

====

experimental_protocol: physchem
measurement_conditions: fassgf or other biorelevant
test_readout: solubility (mg/mL)
Numbers only; they are read as mg/mL.

Query string: Reported solubility, compound CC(=O)OCCn1c2c(c3ccccc31)CCN1C(=O)c3ccccc3N(C)C21 (stereo not shown) : ____
Result string: 0.308

Query string: Given the entry CN1c2ccccc2C(=O)N2CCc3c(n(CCCCCBr)c4ccccc34)C21 (stereo not shown) , report its measured solubility.
Result string: 0.132

Query string: Given the entry CN1c2ccccc2C(=O)N2CCc3c(n(CC=NO)c4ccccc34)C21 (stereo not shown) [6-1, 2-(Evodiamin-N13-yl)acetaldehyde oxime] , report its measured solubility.
Result string: 0.167
